The entries below are paired with their reported Caco2 B to A.
test system: Caco-2 cells (clone C2BBe1); conditions: human, Caco-2; note: unit not given here
Number only, no unit.

1) CC(C)OC(=O)OC[C@H]1O[C@@](C#N)(c2ccc3c(N)ncnn23)[C@@H]2OC(=O)CCC=CCCC(=O)O[C@@H]21 [Compound C9] = 17.94
2) COC(=O)[C@H]([C@@H](C)OC(=O)OC[C@H]1O[C@@](C#N)(c2ccc3c(N)ncnn23)[C@@H]2OC(=O)CC(C)(C)CC(=O)O[C@@H]21)N(C)C [Compound C48] = 1.81
3) CCOC(=O)OC[C@H]1O[C@@](C#N)(c2ccc3c(N)ncnn23)[C@@H]2OC(=O)CC(C)(C)CC(=O)O[C@@H]21 [Compound C14] = 8.55
4) COC(=O)OC[C@H]1O[C@@](C#N)(c2ccc3c(N)ncnn23)[C@@H]2OC(=O)CCCC(=O)O[C@@H]21 [Compound C13] = 5.18
5) COC(C)(C)COC(=O)OC[C@H]1O[C@@](C#N)(c2ccc3c(N)ncnn23)[C@@H]2OC(=O)CC(C)(C)CC(=O)O[C@@H]21 [Compound C39] = 7.17

From here, focus on the item given below.
Task: Which Caco2 B to A is reported for this compound? CC(C)OC(=O)OC[C@H]1O[C@@](C#N)(c2ccc3c(N)ncnn23)[C@@H]2OC(=O)CCOCCC(=O)O[C@@H]21 [Compound C8]
Result: 10.63
